FYI, the data here is from ChEMBL document CHEMBL1147168.

biological target: Neuronal acetylcholine receptor subunit alpha-7 (Homo sapiens, UniProt P36544); assay: Agonist activity at nAChR alpha-7 expressed in Xenopus oocytes; assay type: functional, cell-based, Oocyte
Sequence (P36544 whole entry): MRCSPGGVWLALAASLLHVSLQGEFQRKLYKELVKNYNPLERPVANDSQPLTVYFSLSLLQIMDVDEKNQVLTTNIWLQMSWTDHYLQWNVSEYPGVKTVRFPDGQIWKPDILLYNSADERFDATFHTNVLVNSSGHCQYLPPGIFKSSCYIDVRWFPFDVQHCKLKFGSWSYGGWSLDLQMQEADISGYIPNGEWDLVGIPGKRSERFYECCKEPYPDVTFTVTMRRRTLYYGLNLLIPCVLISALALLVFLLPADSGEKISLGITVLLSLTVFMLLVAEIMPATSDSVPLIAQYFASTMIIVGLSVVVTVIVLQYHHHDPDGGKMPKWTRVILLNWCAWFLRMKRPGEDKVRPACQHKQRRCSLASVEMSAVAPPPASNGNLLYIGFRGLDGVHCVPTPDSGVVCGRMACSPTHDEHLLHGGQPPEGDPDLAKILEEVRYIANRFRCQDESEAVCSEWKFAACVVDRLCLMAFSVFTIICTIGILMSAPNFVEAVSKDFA
parameter: EC50 (nM)
Return type: number; implicit unit nM.

• C(=C1\CN2CCC1CC2)/c1ccccc1 = 1500

*Q* What value of EC50 has been recorded for this entry: COc1ccc(/C=C2/CN3CCC2CC3)cc1
*A* 1300
